Measured values drawn from patent US9994528B2 for this set.

Tested on: rabbit skeletal myofibrils (approximately 90% fast fibers)
Assay: Activation of fast skeletal myofibrils (PUMA coupled-enzyme ATPase assay)
Format: biochemical
Conditions: AC1.4 = concentration at which the compound increased the enzymatic activity by 40%; myofibril suspension at calcium level pCa25; PM12 buffer pH 6.8

[
  {
    "molecule": "NC(=O)c1cnn(-c2cnc(NCC3(c4ncccc4F)CCC3)nn2)c1",
    "target-entity": "rabbit skeletal myofibrils (approximately 90% fast fibers)",
    "Mean AC1.4": "B (B=1-10 uM)"
  },
  {
    "molecule": "CC(C)(Nc1ncc(-c2cc(N)ccc2F)nn1)c1ncccc1F",
    "target-entity": "rabbit skeletal myofibrils (approximately 90% fast fibers)",
    "Mean AC1.4": "B (B=1-10 uM)"
  },
  {
    "molecule": "NC(=O)Cc1cnc(-c2cnc(NCC3(c4ncccc4F)CCC3)nn2)s1",
    "target-entity": "rabbit skeletal myofibrils (approximately 90% fast fibers)",
    "Mean AC1.4": "C (C=10-20 uM)"
  },
  {
    "molecule": "CC(C)(Nc1ncc(-c2ccc(F)c(C(N)=O)c2)nn1)c1ncccc1F",
    "target-entity": "rabbit skeletal myofibrils (approximately 90% fast fibers)",
    "Mean AC1.4": "D (D=>20 uM)"
  },
  {
    "molecule": "CC(C)(Nc1ncc(-c2cc(C(N)=O)ccc2F)nn1)c1ncccc1C(F)F",
    "target-entity": "rabbit skeletal myofibrils (approximately 90% fast fibers)",
    "Mean AC1.4": "C (C=10-20 uM)"
  },
  {
    "molecule": "O=C(O)c1ccc(F)c(-c2cnc(NCC3(c4ncccc4Cl)CCC3)nn2)c1",
    "target-entity": "rabbit skeletal myofibrils (approximately 90% fast fibers)",
    "Mean AC1.4": "A (A=<1 uM)"
  },
  {
    "molecule": "CC(Nc1ncc(-c2cc(C(N)=O)ccc2F)nn1)c1cccc(OC(F)F)n1 (stereo not drawn)",
    "target-entity": "rabbit skeletal myofibrils (approximately 90% fast fibers)",
    "Mean AC1.4": "C (C=10-20 uM)"
  },
  {
    "molecule": "NC(=O)c1ccc(F)c(-c2cnc(NC[C@]3(c4ncccc4F)C[C@H](F)C3)nn2)c1",
    "target-entity": "rabbit skeletal myofibrils (approximately 90% fast fibers)",
    "Mean AC1.4": "A (A=<1 uM)"
  },
  {
    "molecule": "CNC(=O)c1ccc(F)c(-c2cnc(NC[C@]3(c4ncccc4Cl)C[C@H](F)C3)nn2)c1",
    "target-entity": "rabbit skeletal myofibrils (approximately 90% fast fibers)",
    "Mean AC1.4": "A (A=<1 uM)"
  },
  {
    "molecule": "CC(C)(Nc1ncc(-c2ncc(CO)s2)nn1)c1ncccc1Cl",
    "target-entity": "rabbit skeletal myofibrils (approximately 90% fast fibers)",
    "Mean AC1.4": "D (D=>20 uM)"
  },
  {
    "molecule": "NC(=O)c1ccc(F)c(-c2cnc(NCC3(c4ncccc4Cl)CC(F)(F)C3)nn2)c1",
    "target-entity": "rabbit skeletal myofibrils (approximately 90% fast fibers)",
    "Mean AC1.4": "A (A=<1 uM)"
  },
  {
    "molecule": "CC(C)(Nc1ncc(-c2cccc(C(N)=O)c2)nn1)c1ncccc1F",
    "target-entity": "rabbit skeletal myofibrils (approximately 90% fast fibers)",
    "Mean AC1.4": "B (B=1-10 uM)"
  },
  {
    "molecule": "COC(=O)c1ccc(F)c(-c2cnc(NC(C)(C)c3cccc(S(C)(=O)=O)c3)nn2)c1",
    "target-entity": "rabbit skeletal myofibrils (approximately 90% fast fibers)",
    "Mean AC1.4": "D (D=>20 uM)"
  },
  {
    "molecule": "CC(=O)NCCc1ccc(NCC(C)(C)c2ccc(F)cc2)nc1",
    "target-entity": "rabbit skeletal myofibrils (approximately 90% fast fibers)",
    "Mean AC1.4": "D (D=>20 uM)"
  },
  {
    "molecule": "CNC(=O)c1cccc(-c2cnc(NC[C@]3(c4ncccc4F)C[C@H](F)C3)nn2)c1",
    "target-entity": "rabbit skeletal myofibrils (approximately 90% fast fibers)",
    "Mean AC1.4": "B (B=1-10 uM)"
  },
  {
    "molecule": "CC(C)(Nc1ncc(-c2cc(NS(N)(=O)=O)ccc2F)nn1)c1ncccc1F",
    "target-entity": "rabbit skeletal myofibrils (approximately 90% fast fibers)",
    "Mean AC1.4": "B (B=1-10 uM)"
  },
  {
    "molecule": "CC(C)(CNc1ncc(-n2cc(C(N)=O)cn2)nn1)c1ccc(F)cc1",
    "target-entity": "rabbit skeletal myofibrils (approximately 90% fast fibers)",
    "Mean AC1.4": "B (B=1-10 uM)"
  },
  {
    "molecule": "CC(C)(Nc1ncc(-c2cc(C(N)=O)ccc2F)nn1)c1cccc(OC(F)F)n1",
    "target-entity": "rabbit skeletal myofibrils (approximately 90% fast fibers)",
    "Mean AC1.4": "A (A=<1 uM)"
  },
  {
    "molecule": "CC(C)(Nc1ncc(-n2cc(C(N)=O)cn2)nn1)c1ncccc1Cl",
    "target-entity": "rabbit skeletal myofibrils (approximately 90% fast fibers)",
    "Mean AC1.4": "D (D=>20 uM)"
  },
  {
    "molecule": "NC(=O)c1ccc(F)c(-c2cnc(NC[C@]3(c4ncccc4Cl)C[C@H](F)C3)nn2)c1",
    "target-entity": "rabbit skeletal myofibrils (approximately 90% fast fibers)",
    "Mean AC1.4": "A (A=<1 uM)"
  },
  {
    "molecule": "CC(C)(CNc1ccc(-c2cccc(C(N)=O)c2)cn1)c1ccc(F)cc1",
    "target-entity": "rabbit skeletal myofibrils (approximately 90% fast fibers)",
    "Mean AC1.4": "A (A=<1 uM)"
  }
]
